Below, each entry is listed alongside its reported yeast fitness (ln).
B1: tRNA (parent)
chain: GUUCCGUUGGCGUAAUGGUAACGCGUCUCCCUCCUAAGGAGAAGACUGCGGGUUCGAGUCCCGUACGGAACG

variants of: B1; test: yeast fitness, log relative to wild type (ln ratio); higher = fitter; tRNA-Arg(CCU), competitive growth, 37 C, 1 M NaCl
measure: yeast fitness (ln)

{"mutation": "G1A G6A C46U C66U A69G C71U", "recordedMeasurement": -0.0213}
{"mutation": "U2G C27U C66A A70U C71U", "recordedMeasurement": -0.195}
{"mutation": "G1A U2G G6A C27U C66U C71U", "recordedMeasurement": -0.344}
{"mutation": "G1A G6U C27U A70G C71U", "recordedMeasurement": -0.352}
{"mutation": "U2C G6U C27U A43C C46U A69G A70U C71U", "recordedMeasurement": -0.309}
{"mutation": "G1A U2G C27U C66A C71U", "recordedMeasurement": -0.147}
{"mutation": "U2G G6U C27U C46U C66U A69G A70G C71U", "recordedMeasurement": -0.356}
{"mutation": "G1A G6A C27U C66U A69G A70U C71U", "recordedMeasurement": -0.387}
{"mutation": "U2C G6A A43C C46U", "recordedMeasurement": -0.0201}
{"mutation": "A43C C46U C66U A70G", "recordedMeasurement": -0.0608}
{"mutation": "G1A U2G A43C C46U A70G", "recordedMeasurement": -0.114}
{"mutation": "G1A U2G G6A A43C", "recordedMeasurement": -0.238}
{"mutation": "G1A A43C C66U A69G A70U", "recordedMeasurement": -0.373}
{"mutation": "U2G C27U A43C C46U A69G A70U C71U", "recordedMeasurement": -0.295}
{"mutation": "U2G G6U C66A C71U", "recordedMeasurement": -0.108}
{"mutation": "U2G C66U A69G A70G", "recordedMeasurement": -0.151}
{"mutation": "G1A U2C C27U A43C C46U A69G A70U", "recordedMeasurement": -0.0492}
{"mutation": "G1A U2C C27U C46U C66U A69G A70G", "recordedMeasurement": -0.11}
{"mutation": "U2C A43C C66U C71U", "recordedMeasurement": -0.24}
{"mutation": "G1A U2G G6A C27U A43C C46U C66U A70G", "recordedMeasurement": -0.216}
{"mutation": "G1A C27U A43C C46U A69G A70U C71U", "recordedMeasurement": -0.366}
{"mutation": "G1A U2C C27U A43C C46U C66U A70G C71U", "recordedMeasurement": -0.4}
{"mutation": "G1A U2C G6A C27U A43C", "recordedMeasurement": -0.0863}
{"mutation": "G6U C27U C66A A69G A70U C71U", "recordedMeasurement": -0.378}
{"mutation": "G1A G6A C27U A43C A70U", "recordedMeasurement": -0.3}
{"mutation": "U2C C27U A43C C46U C66A A70G", "recordedMeasurement": -0.0421}
{"mutation": "U2C G6U A43C C71U", "recordedMeasurement": -0.117}
{"mutation": "U2G G6U C27U C46U", "recordedMeasurement": -0.1}
{"mutation": "U2C C27U A43C A69G A70U C71U", "recordedMeasurement": -0.266}
{"mutation": "U2G G6A C27U A43C C46U C66A A69G A70G C71U", "recordedMeasurement": -0.252}
{"mutation": "U2G G6U A43C C46U A70U C71U", "recordedMeasurement": -0.168}
{"mutation": "G1A G6U C27U A43C C66U A69G A70G C71U", "recordedMeasurement": -0.497}
{"mutation": "G1A C27U A69G C71U", "recordedMeasurement": -0.0706}
{"mutation": "U2C G6U C27U A43C A70U C71U", "recordedMeasurement": -0.253}
{"mutation": "U2C C27U A43C C46U C66U A69G C71U", "recordedMeasurement": -0.281}
{"mutation": "G1A U2C A43C A70U C71U", "recordedMeasurement": -0.278}
{"mutation": "U2C A43C C66U A69G A70U", "recordedMeasurement": -0.263}
{"mutation": "G1A U2G C46U C66U A70G C71U", "recordedMeasurement": -0.161}
{"mutation": "G1A U2C G6A C27U A43C C46U C66U A69G A70G", "recordedMeasurement": -0.0972}
{"mutation": "U2G G6A C46U", "recordedMeasurement": -0.0244}
{"mutation": "U2C C46U C66U C71U", "recordedMeasurement": -0.0488}
{"mutation": "U2G G6U C27U A43C C46U A69G A70G C71U", "recordedMeasurement": -0.33}
{"mutation": "U2G A43C C66A A70U C71U", "recordedMeasurement": -0.316}
{"mutation": "U2G C27U A43C C66U", "recordedMeasurement": -0.214}
{"mutation": "G1A C27U A43C C66U A70U", "recordedMeasurement": -0.201}
{"mutation": "G1A C46U C71U", "recordedMeasurement": -0.01}
{"mutation": "U2C C27U C66U", "recordedMeasurement": -0.0757}
{"mutation": "G1A U2G G6U C27U C66A C71U", "recordedMeasurement": -0.273}
{"mutation": "G1A G6A A43C C46U C66U A69G A70G C71U", "recordedMeasurement": -0.274}
{"mutation": "U2C C27U C46U A70G", "recordedMeasurement": -0.0268}
{"mutation": "U2C G6U C27U C46U A70U C71U", "recordedMeasurement": -0.171}
{"mutation": "G6A C27U C66U A70U", "recordedMeasurement": -0.188}
{"mutation": "G1A C46U A69G A70U C71U", "recordedMeasurement": -0.359}
{"mutation": "G1A U2C G6A A43C C66U A69G A70U", "recordedMeasurement": -0.275}
{"mutation": "U2G C46U C66U A70U", "recordedMeasurement": -0.00424}
{"mutation": "G1A U2G C27U A43C C66U A69G A70U C71U", "recordedMeasurement": -0.332}
{"mutation": "G6A A43C C66U A69G A70G", "recordedMeasurement": -0.35}
{"mutation": "U2G C27U A43C C66U A69G A70G", "recordedMeasurement": -0.348}
{"mutation": "U2C G6A C27U A43C C46U C66A A70G C71U", "recordedMeasurement": -0.0721}
{"mutation": "G1A U2G A43C C46U A69G A70G C71U", "recordedMeasurement": -0.226}
{"mutation": "U2C G6A C66U A69G C71U", "recordedMeasurement": -0.225}
{"mutation": "G6U C27U C66A A70G C71U", "recordedMeasurement": -0.294}
{"mutation": "U2C G6U C27U A43C C46U C66U A70G C71U", "recordedMeasurement": -0.225}
{"mutation": "G1A U2G G6U C27U A43C C46U", "recordedMeasurement": -0.363}
{"mutation": "C27U A43C C46U C66A A69G A70U", "recordedMeasurement": -0.156}
{"mutation": "G1A G6A A70U C71U", "recordedMeasurement": -0.153}
{"mutation": "U2G G6A A43C C66U A70G C71U", "recordedMeasurement": -0.186}
{"mutation": "G1A C27U C46U A69G A70U C71U", "recordedMeasurement": -0.301}
{"mutation": "G1A G6U C27U C46U C66A A70G", "recordedMeasurement": -0.233}
{"mutation": "U2G C27U C66U A70G C71U", "recordedMeasurement": -0.21}
{"mutation": "G1A G6U C27U A43C C46U C66U A69G C71U", "recordedMeasurement": -0.423}
{"mutation": "G1A U2G A43C C46U C66A", "recordedMeasurement": -0.156}
{"mutation": "G6A C46U C66U A69G A70U", "recordedMeasurement": -0.202}
{"mutation": "U2C C27U A70G C71U", "recordedMeasurement": -0.0321}
{"mutation": "U2C G6A C46U C66U A69G C71U", "recordedMeasurement": -0.183}
{"mutation": "U2G G6U C27U C66U A70G", "recordedMeasurement": -0.207}
{"mutation": "G1A U2G C27U C46U C66U A70G", "recordedMeasurement": -0.167}
{"mutation": "G1A U2C G6U C46U A70G C71U", "recordedMeasurement": -0.00847}
{"mutation": "G1A G6U C46U A69G A70G", "recordedMeasurement": -0.203}
{"mutation": "U2C G6U A43C A70G", "recordedMeasurement": -0.188}
{"mutation": "U2C C27U A43C C46U C66U A70U", "recordedMeasurement": -0.115}
{"mutation": "G6A C27U A43C C46U A69G A70G C71U", "recordedMeasurement": -0.306}
{"mutation": "U2G G6U C46U C66A A69G A70U", "recordedMeasurement": 0.00778}
{"mutation": "U2C G6A C71U", "recordedMeasurement": -0.0812}
